# assay-comment: Aqueous solubility of the compound at 125 ug/ml measured after 24 hrs at pH 4.5 by LC-UV analysis
# Assay type: physicochemical
# test-parameters: buffer, pH 4.5, 24 h, dose 125 µg/ml
parameter: solubility

Cc1sc2c(c1C)C(c1ccc(Cl)cc1)=N[C@@H](CC(=O)NCCCCCCN1CCC(c3ccc4c(c3)CN(C3CCC(=O)NC3=O)C4=O)CC1)c1nnc(C)n1-2 (some centres undefined) = > 197 µM
Cc1sc2c(c1C)C(c1ccc(Cl)cc1)=N[C@@H](CC(=O)NCCCN1CCC(c3ccc4c(c3)CN(C3CCC(=O)NC3=O)C4=O)CC1)c1nnc(C)n1-2 (some centres undefined) = > 185 µM
Cc1sc2c(c1C)C(c1ccc(Cl)cc1)=N[C@@H](CC(=O)NCCN1CC3(CCC(c4ccc5c(c4)CN(C4CCC(=O)NC4=O)C5=O)CC3)C1)c1nnc(C)n1-2 (some centres undefined) = > 190 µM

For the next question, use this compound.
Value of solubility reported for the compound Cc1sc2c(c1C)C(c1ccc(Cl)cc1)=N[C@@H](CC(=O)NCCCCCN1CCC(c3ccc4c(c3)CN(C3CCC(=O)NC3=O)C4=O)CC1)c1nnc(C)n1-2 (some centres undefined) is > 191 µM
